Provenance of the data: patent US20240309103A1

Kindly supply the reported Kd values for the records listed here.
system name: T1, hNPR1-mFc:hANP or hNPR1-hFc:hANP complex (human, UniProt P01160 124-151)
T1 construct: also called human NPR1 complexed to ANP
protocol: SPR, mAb captured, 25C
Mention the unit after the number when you answer.

[in] Look up and state reported Kd for mAb22035 (antibody, human IgG4, V domains shown) VH: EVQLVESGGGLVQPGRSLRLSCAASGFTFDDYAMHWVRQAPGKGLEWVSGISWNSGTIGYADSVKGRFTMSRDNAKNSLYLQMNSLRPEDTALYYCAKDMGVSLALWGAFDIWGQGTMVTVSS VL: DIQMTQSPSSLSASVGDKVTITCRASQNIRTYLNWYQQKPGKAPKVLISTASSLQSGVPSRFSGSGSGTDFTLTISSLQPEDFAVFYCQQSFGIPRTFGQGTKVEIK
[out] 434 pM

[in] Look up and state reported Kd for mAb25479 (antibody, human IgG4, V domains shown) VH: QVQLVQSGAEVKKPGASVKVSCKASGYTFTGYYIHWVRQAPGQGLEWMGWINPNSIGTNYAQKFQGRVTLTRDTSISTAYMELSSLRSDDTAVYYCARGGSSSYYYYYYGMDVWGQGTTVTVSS VL: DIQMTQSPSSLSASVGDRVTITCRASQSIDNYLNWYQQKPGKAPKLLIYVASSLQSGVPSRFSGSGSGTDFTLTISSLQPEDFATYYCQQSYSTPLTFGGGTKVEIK
[out] 3530 pM

[in] Look up and state reported Kd for mAb25508 (antibody, human IgG4, V domains shown) VH: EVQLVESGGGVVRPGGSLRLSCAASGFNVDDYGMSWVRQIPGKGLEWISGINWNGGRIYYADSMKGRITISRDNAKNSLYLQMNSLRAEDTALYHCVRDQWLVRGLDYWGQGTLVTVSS VL: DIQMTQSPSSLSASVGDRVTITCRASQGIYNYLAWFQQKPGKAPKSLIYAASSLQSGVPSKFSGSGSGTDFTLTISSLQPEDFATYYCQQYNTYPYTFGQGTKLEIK
[out] 340 pM
